System: ENO1-wildtype (LN319) glioma cells
Experiment: Crystal violet cell proliferation assay, ENO1-wildtype LN319 cells
Assay type: cell-based
Conditions: LN-319, read-out: IC50, LN319 (ENO1+/+)
Experimental: FIGS. 1A, 1B, 1C, and 1D show cell proliferation assays for enolase inhibitors HEX (1A), FLM37 (1B), CDP18 (1C), and VCY32 (1D) against (i) ENO1-deleted (D423), (ii) ENO1-rescued (D423 ENO1), and (iii) ENO1-wildtype (LN319) glioma cells. Cells were incubated with pro-drug inhibitor for 5 days. Then, cells were fixed and stained with crystal violet and quantified spectroscopically. […] See, Leonard et al. (2016) Nat. […] Then, cells were fixed and stained with crystal violet and quantified spectroscopically. […]
READOUT: IC50 (µM)
Write it as a number; the unit µM goes unstated.

Give reported IC50 value for CN(C)P(=O)(OCOC(=O)C(C)(C)C)C1CCCN(O)C1=O (stereo not shown) [CDP21]
5.06

----------
system: ENO1-wildtype (LN319) glioma cells; assay: Crystal violet cell proliferation assay, ENO1-wildtype LN319 cells; format: cell-based; settings: LN-319; ENO1-wildtype (LN319); read-out: IC50, LN319 (ENO1+/+)
READOUT: IC50 (µM)
Write it as a number; the unit µM goes unstated.

Give reported IC50 value for CNP(=O)(OCOC(=O)C(C)(C)C)C1CCCN(O)C1=O (centres unmarked) [CDP23]
1.5

Give reported IC50 value for CCCCCCCCCCCCNP(=O)(O)C1CCCN(O)C1=O (centres unmarked) [CDP22]
0.844

----------
system: ENO1-deleted (D423) glioma cells; assay: Crystal violet cell proliferation assay, ENO1-deleted D423 cells; format: cell-based; conditions: Glioma cell; ENO1-deleted (D423); read-out: IC50,D423 (ENO1−/−)
For each record, write down the corresponding pIC50.
On this scale, pIC50 is minus log10 of a concentration expressed in M (mol/L).

Give reported pIC50 value for CCCCCCCCCCCCNP(=O)(O)C1CCCN(O)C1=O (centres unmarked)
7.24

Give reported pIC50 value for CNP(=O)(OCOC(=O)C(C)(C)C)C1CCCN(O)C1=O (centres unmarked)
7.40

----------
system: ENO1-rescued (D423 ENO1) glioma cells; test: cells; assay type: cell-based; settings: Glioma cell, read-out: IC50, D423 EN01 (ENO1 +/+)
READOUT: IC50 (nM)
Write it as a number; the unit nM goes unstated.

Give reported IC50 value for CN(C)P(=O)(OCOC(=O)C(C)(C)C)C1CCCN(O)C1=O (stereo not shown)
115

----------
tested on: ENO1-deleted (D423) glioma cells; test: Crystal violet cell proliferation assay, ENO1-deleted D423 cells; format: cell-based; details: Glioma cell, 120 h
READOUT: pIC50
On this scale, pIC50 is minus log10 of a concentration expressed in M (mol/L).

Give reported pIC50 value for CN(C)P(=O)(OCOC(=O)C(C)(C)C)C1CCCN(O)C1=O (stereo not shown) [CDP21]
6.97
